Measured MIC of individual entries
- Tested on: Staphylococcus epidermidis
- protocol.details: Antibacterial activity against methicillin-resistant Staphylococcus epidermidis isolate CAN-ICU 61589 after 24 hrs by microtitre broth dilution method
- Assay type: functional
- condition.info: isolate CAN-ICU 61589, 24 h
Provide only the numeric value, understood in µg/mL.

Some solved entries appear below for comparison.
{"compound": "O=C(O)c1cn(C2CC2)c2cc(N3CCNCC3)c(F)cc2c1=O [CIPROFLOXACIN]", "MIC [µg/mL]": 128}
{"compound": "COc1c(N2C[C@@H]3CCCN[C@@H]3C2)c(F)cc2c(=O)c(C(=O)O)cn(C3CC3)c12 [MOXIFLOXACIN]", "MIC [µg/mL]": 64}
{"compound": "NC[C@H]1O[C@H](O[C@H]2[C@H](O)[C@@H](O[C@H]3O[C@H](CO)[C@@H](O)[C@H](N)[C@H]3O)[C@H](N)C[C@@H]2N)[C@H](N)C[C@@H]1O [TOBRAMYCIN]", "MIC [µg/mL]": 1}

Next up:
Can you look up the measured MIC of COc1c(N2C[C@@H]3CCCN(CCCCCCCCCCCCO[C@H]4[C@@H](O[C@@H]5[C@@H](O)[C@H](O[C@H]6O[C@H](CN)[C@@H](O)C[C@H]6N)[C@@H](N)C[C@H]5N)O[C@H](CO)[C@@H](O)[C@@H]4N)[C@@H]3C2)c(F)cc2c(=O)c(C(=O)O)cn(C3CC3)c12.Cl.Cl.Cl.Cl.Cl for me?
8

====

# MIC per entry
- Test system: Pseudomonas aeruginosa
- protocol.details: Antibacterial activity against multidrug/extremely drug-resistant/colistin-susceptible Pseudomonas aeruginosa isolate 101885
- Format: functional
Number only, in µg/mL; omit the unit.

{"compound": "C[C@@H](O)[C@H]1C(=O)N2C(C(=O)O)=C(S[C@@H]3CN[C@H](C(=O)N(C)C)C3)[C@H](C)[C@H]12 [MEROPENEM]", "MIC (µg/mL)": 1}
{"compound": "COc1c(N2C[C@@H]3CCCN(CCCCCCCCCCCCO[C@@H]4[C@@H](O[C@H]5O[C@H](CO)[C@@H](O)[C@H](N)[C@H]5O)[C@H](N)C[C@H](N)[C@H]4O[C@H]4O[C@H](CN)[C@@H](O)C[C@H]4N)[C@@H]3C2)c(F)cc2c(=O)c(C(=O)O)cn(C3CC3)c12.Cl.Cl.Cl.Cl.Cl", "MIC (µg/mL)": 8}

Quick check: MIC of C[C@@H](O)[C@H]1C(=O)N2C(C(=O)O)=C(S[C@@H]3CN[C@H](CNS(N)(=O)=O)C3)[C@H](C)[C@H]12 [DORIPENEM] ?
0.5

====

MIC values, listed per item
- Test system: Pseudomonas aeruginosa
- protocol.details: Antibacterial activity against Pseudomonas aeruginosa PAO1
- Type: functional

Below, each entry is followed by its recorded MIC result.
{"sample.smiles": "COc1c(N2C[C@@H]3CCCN(CCCCCCCCCCCCO[C@H]4[C@@H](O[C@@H]5[C@@H](O)[C@H](O[C@H]6O[C@H](CN)[C@@H](O)C[C@H]6N)[C@@H](N)C[C@H]5N)O[C@H](CO)[C@@H](O)[C@@H]4N)[C@@H]3C2)c(F)cc2c(=O)c(C(=O)O)cn(C3CC3)c12.Cl.Cl.Cl.Cl.Cl", "MIC": "> 32 µg/mL"}
{"sample.smiles": "NC[C@H]1O[C@H](O[C@H]2[C@H](O)[C@@H](O[C@H]3O[C@H](CO)[C@@H](O)[C@H](N)[C@H]3O)[C@H](N)C[C@@H]2N)[C@H](N)C[C@@H]1O", "MIC": "0.5 µg/mL"}

I would be grateful if you could share the reported MIC for O=C(O)c1cn(C2CC2)c2cc(N3CCNCC3)c(F)cc2c1=O .
< 0.2 µg/mL

====

Entries and their log10(MIC) values follow.
- Tested on: Pseudomonas aeruginosa
- protocol.details: Antibacterial activity against Pseudomonas aeruginosa ATCC 27853 after 24 hrs by microtitre broth dilution method
- Format: functional
- condition.info: ATCC 27853, 24 h
Quick note: numbers are log10 of MIC, with µg/mL as the unit.

{"sample.smiles": "COc1c(N2C[C@@H]3CCCN[C@@H]3C2)c(F)cc2c(=O)c(C(=O)O)cn(C3CC3)c12", "log10(MIC)": 0.60}

// below: log10(MIC) requested for another compound
Requested field: log10(MIC). Item: COc1c(N2C[C@@H]3CCCN(CCCCCCCCCCCCO[C@@H]4[C@@H](O[C@H]5O[C@H](CO)[C@@H](O)[C@H](N)[C@H]5O)[C@H](N)C[C@H](N)[C@H]4O[C@H]4O[C@H](CN)[C@@H](O)C[C@H]4N)[C@@H]3C2)c(F)cc2c(=O)c(C(=O)O)cn(C3CC3)c12.Cl.Cl.Cl.Cl.Cl
0.60

====

- protocol.details: Cytotoxicity against human DU145 cells assessed as reduction in cell viability after 48 hrs by MTS assay
- Assay type: toxicity, cell-based, DU-145
reported.property: CC50 at 48 h

For the compound COc1c(N2C[C@@H]3CCCN(CCCCCCCCCCCCO[C@@H]4[C@@H](O[C@H]5O[C@H](CO)[C@@H](O)[C@H](N)[C@H]5O)[C@H](N)C[C@H](N)[C@H]4O[C@H]4O[C@H](CN)[C@@H](O)C[C@H]4N)[C@@H]3C2)c(F)cc2c(=O)c(C(=O)O)cn(C3CC3)c12.Cl.Cl.Cl.Cl.Cl , what CC50 at 48 h is on record?
> 30 µM

====

- Tested on: Pseudomonas aeruginosa
- protocol.details: Antibacterial activity against multidrug-resistant/tobramycin-susceptible Pseudomonas aeruginosa isolate 92014
- Format: functional
Reported MIC values follow for various molecules
Answer format: numeric, µg/mL implied, no suffix.

Some entries whose results are on file:
{"molecule": "C[C@@H](O)[C@H]1C(=O)N2C(C(=O)O)=C(SCCNC=N)C[C@H]12 [IMIPENEM ANHYDROUS]", "MIC, µg/mL": 8}
{"molecule": "COc1c(N2C[C@@H]3CCCN(CCCCCCCCCCCCO[C@@H]4[C@@H](O[C@H]5O[C@H](CO)[C@@H](O)[C@H](N)[C@H]5O)[C@H](N)C[C@H](N)[C@H]4O[C@H]4O[C@H](CN)[C@@H](O)C[C@H]4N)[C@@H]3C2)c(F)cc2c(=O)c(C(=O)O)cn(C3CC3)c12.Cl.Cl.Cl.Cl.Cl", "MIC, µg/mL": 4}
{"molecule": "COc1c(N2C[C@@H]3CCCN[C@@H]3C2)c(F)cc2c(=O)c(C(=O)O)cn(C3CC3)c12", "MIC, µg/mL": 16}
{"molecule": "CO/N=C(\\C(=O)N[C@@H]1C(=O)N2C(C(=O)[O-])=C(C[N+]3(C)CCCC3)CS[C@H]12)c1csc(N)n1 [CEFEPIME]", "MIC, µg/mL": 16}
{"molecule": "C[C@@H](O)[C@H]1C(=O)N2C(C(=O)O)=C(S[C@@H]3CN[C@H](C(=O)N(C)C)C3)[C@H](C)[C@H]12", "MIC, µg/mL": 8}

# evaluate next
Please state recorded MIC (tested on Pseudomonas aeruginosa) of NC[C@H]1O[C@H](O[C@H]2[C@H](O)[C@@H](O[C@H]3O[C@H](CO)[C@@H](O)[C@H](N)[C@H]3O)[C@H](N)C[C@@H]2N)[C@H](N)C[C@@H]1O
1

====

- Tested on: Pseudomonas aeruginosa
- protocol.details: Antibacterial activity against multidrug-resistant/tobramycin-susceptible Pseudomonas aeruginosa isolate 83182
- Type: functional
// MIC lookup, one value per entry
Please state the figure in µg/mL; there is no need to write the unit.

{"molecule": "NC[C@H]1O[C@H](O[C@H]2[C@H](O)[C@@H](O[C@H]3O[C@H](CO)[C@@H](O)[C@H](N)[C@H]3O)[C@H](N)C[C@@H]2N)[C@H](N)C[C@@H]1O", "target.or.system": "Pseudomonas aeruginosa", "display.unit": "µg/mL", "measured.number": 1}
{"molecule": "C[C@@H](O)[C@H]1C(=O)N2C(C(=O)O)=C(SCCNC=N)C[C@H]12 [IMIPENEM ANHYDROUS]", "target.or.system": "Pseudomonas aeruginosa", "display.unit": "µg/mL", "measured.number": 16}

Next item in the queue.
Requested field: MIC. Item: COc1c(N2C[C@@H]3CCCN[C@@H]3C2)c(F)cc2c(=O)c(C(=O)O)cn(C3CC3)c12
16

====

The entries below are paired with their reported MIC.
- Tested on: Pseudomonas aeruginosa
- protocol.details: Antibacterial activity against pandrug-resistant Pseudomonas aeruginosa isolate 91433
- Assay type: functional
Please state the figure in µg/mL; there is no need to write the unit.

{"molecule": "C[C@@H](O)[C@H]1C(=O)N2C(C(=O)O)=C(S[C@@H]3CN[C@H](C(=O)N(C)C)C3)[C@H](C)[C@H]12", "display.unit": "µg/mL", "measured.number": 8}

# lookup: MIC of CO/N=C(\C(=O)N[C@@H]1C(=O)N2C(C(=O)[O-])=C(C[N+]3(C)CCCC3)CS[C@H]12)c1csc(N)n1 [CEFEPIME]
16

Recorded MIC of C[C@H]1c2cccc(O)c2C(=O)C2=C(O)[C@]3(O)C(=O)C(C(N)=O)=C(O)[C@@H](N(C)C)[C@@H]3[C@@H](O)[C@@H]21.O , please.
32

Requested field: MIC. Item: COc1c(N2C[C@@H]3CCCN(CCCCCCCCCCCCO[C@@H]4[C@@H](O[C@H]5O[C@H](CO)[C@@H](O)[C@H](N)[C@H]5O)[C@H](N)C[C@H](N)[C@H]4O[C@H]4O[C@H](CN)[C@@H](O)C[C@H]4N)[C@@H]3C2)c(F)cc2c(=O)c(C(=O)O)cn(C3CC3)c12.Cl.Cl.Cl.Cl.Cl
8

Recorded MIC for C[C@@H](O)[C@H]1C(=O)N2C(C(=O)O)=C(S[C@@H]3CN[C@H](CNS(N)(=O)=O)C3)[C@H](C)[C@H]12 , please?
8

So what does the record say about MIC for NC[C@H]1O[C@H](O[C@H]2[C@H](O)[C@@H](O[C@H]3O[C@H](CO)[C@@H](O)[C@H](N)[C@H]3O)[C@H](N)C[C@@H]2N)[C@H](N)C[C@@H]1O ?
8
